# credit: patent US10208033B2

Reported Bactericidal activity (%) potato late blight is given for each of the following compounds.
- Tested on: potato late blight
- assay_overview: microbe, parasite or virus in culture
- Assay type: cell-based
- condition_description: 50 mg/kg
// units = %; emit number, no label

These solved cases illustrate the format of a correct answer.
| compound | target_or_test_system | value_observed |
| --- | --- | --- |
| CCOC(=O)c1cc2c([nH]c3ccccc32)c(C)n1 | potato late blight | 35.0 |
| CC(=O)Oc1ccc2c(c1)[nH]c1c(C)nccc12 | potato late blight | 20.0 |
| Cc1nccc2c1[nH]c1cc(OC(=O)C(C)(C)C)ccc12 | potato late blight | 50.0 |

Noted Bactericidal activity (%) potato late blight for CCOC(=O)C1Cc2c([nH]c3ccccc23)C(C)=N1 (stereo not shown) , tested on potato late blight: 36.4

====

- Test system: mosquito larvae
- assay_overview: whole plant or invertebrate
- condition_description: concentration 5 mg/kg, 24 h
Recorded Mosquito larvae Mortality (%) values for a group of compounds are listed next.
The reply should contain only the number, in %.

Examples with answers:
| compound | value_observed |
| --- | --- |
| CCOC(=O)[C@H]1Cc2c([nH]c3ccccc23)[C@@H](C)N1 | 40 |
| C[C@@H]1N[C@H](C(=O)NN=Cc2ccc(Cl)cc2Cl)Cc2c1[nH]c1ccccc21 | 20 |
| C[C@@H]1N[C@H](C(=O)NN=Cc2ccc[nH]2)Cc2c1[nH]c1ccccc21 | 80 |
| COc1ccc(C=NNC(=O)[C@@H]2Cc3c([nH]c4ccccc34)[C@H](C)N2)cc1OC | 40 |
| CCCCCCCC=NNC(=O)[C@@H]1Cc2c([nH]c3ccccc23)[C@H](C)N1 | 10 |
| CC(=NNC(=O)[C@@H]1Cc2c([nH]c3ccccc23)[C@H](C)N1)C(C)(C)C | 20 |

Mosquito larvae Mortality (%) reading for `Cc1nccc2c1[nH]c1cc(OC(=O)N(C)C)ccc12` : 20

Data point: `Cc1nccc2c1[nH]c1cc(OC(=O)C(C)(C)C)ccc12` ; Mosquito larvae Mortality (%) = 60

Notebook: C[C@@H]1N[C@H](C(=O)NCC2CCCO2)Cc2c1[nH]c1ccccc21 (stereo partly shown) , Mosquito larvae Mortality (%) read as 40

In plain terms, `C[C@@H]1N[C@H](C(=O)NN=CC2CCCCC2)Cc2c1[nH]c1ccccc21` has a documented Mosquito larvae Mortality (%) of 10

====

- System: Fusarium fujikuroi
- assay_overview: Fungicidal (bactericidal) activity in vitro, PDA colony diameter
- Assay type: cell-based
- condition_description: 50 mg/kg
Let's look at some compounds and their measured Bactericidal activity (%) Fusarium fujikuroi.
Quick note: give the figure in %, leave out the unit.

// below: answered compounds
| compound | target_or_test_system | value_observed |
| --- | --- | --- |
| CCOC(=O)[C@H]1Cc2c([nH]c3ccccc23)[C@@H](C)N1 | Fusarium fujikuroi | 28.6 |
| CCCCCCCC=NNC(=O)[C@@H]1Cc2c([nH]c3ccccc23)[C@H](C)N1 | Fusarium fujikuroi | 35.3 |
| C[C@@H]1N[C@H](C(=O)NNC(=O)c2ccncc2)Cc2c1[nH]c1ccccc21 | Fusarium fujikuroi | 29.4 |
| Cc1nc(/C=C/C(=O)O)cc2c1[nH]c1ccccc12 | Fusarium fujikuroi | 28.6 |
| C[C@@H]1N[C@H](C(=O)NN=CC(C)(C)C)Cc2c1[nH]c1ccccc21 | Fusarium fujikuroi | 29.4 |
| Cc1nccc2c1[nH]c1cc(OC(=O)C(C)(C)C)ccc12 | Fusarium fujikuroi | 50.0 |

Now let's try a different one.
Bactericidal activity (%) Fusarium fujikuroi reported for this compound `C/C=C/C=NNC(=O)[C@@H]1Cc2c([nH]c3ccccc23)[C@H](C)N1` : 14.3

====

- Tested on: armyworms
- Assay type: in vivo
- condition_description: concentration 600 mg/kg
Please note: Armyworm Mortality (%) exactly at 40% is -1. Only values below 40% get 1.

Would you please look over these solved cases?
| molecule | label_class |
| --- | --- |
| CCOC(=O)c1cc2c([nH]c3ccccc32)c(C)n1 | 1 |
| CCOC(=O)[C@@H]1Cc2c([nH]c3ccccc23)[C@H](c2cccnc2)N1 | 1 |
| C[C@@H]1N[C@H](C(=O)NN=C2CCCCC2)Cc2c1[nH]c1ccccc21 | 1 |
| CCOC(=O)[C@@H]1Cc2c([nH]c3ccccc23)[C@H](C)N1 | -1 |

*Q* Threshold test, Armyworm Mortality (%) < 40%: `C[C@@H]1N[C@H](C(=O)NN=Cc2ccc[nH]2)Cc2c1[nH]c1ccccc21`
*A* -1

*Q* is_below(Armyworm Mortality (%), 40%) for `CCOC(=O)[C@@H]1Cc2c([nH]c3ccccc23)[C@H](CC)N1` ?
*A* 1

*Q* # TODO verify Armyworm Mortality (%) < 40% strictly for this molecule: `C[C@@H]1N[C@H](C(=O)NNC(=O)c2ccncc2)Cc2c1[nH]c1ccccc21`
*A* 1

*Q* Lab note: Armyworm Mortality (%) threshold 40%. Does this molecule come in strictly under it? CC1NCCc2c1[nH]c1ccccc21 (centres unmarked) [Tetrahydroharmane]
*A* 1

*Q* Strictly below 40%: is that where Armyworm Mortality (%) of `C[C@@H]1N[C@H](C(=O)NN=Cc2ccc3c(c2)OCO3)Cc2c1[nH]c1ccccc21` sits?
*A* 1

====

- Tested on: armyworms
- Assay type: in vivo
- condition_description: concentration 600 mg/kg
So basically: is Armyworm Mortality (%) under 20%? Then True. Not under? Then False.

| compound | target_or_test_system | label_class |
| --- | --- | --- |
| C[C@@H]1N[C@H](C(=O)NN=Cc2ccc(Cl)cc2Cl)Cc2c1[nH]c1ccccc21 | armyworms | False |
| C[C@@H]1N[C@H](C(=O)NNC(=O)C(C)(C)C)Cc2c1[nH]c1ccccc21 | armyworms | False |
| CCOC(=O)[C@H]1Cc2c([nH]c3ccccc23)[C@@H](C)N1 | armyworms | False |
| C[C@@H]1N[C@H](C(=O)NCN(C)C)Cc2c1[nH]c1ccccc21 | armyworms | True |
| C[C@@H]1N[C@H](C(=O)NN=Cc2ccc3c(c2)OCCO3)Cc2c1[nH]c1ccccc21 | armyworms | False |

*Q* Identify whether the compound `C[C@@H]1N[C@H](C(=O)NN=Cc2ccncc2)Cc2c1[nH]c1ccccc21` records Armyworm Mortality (%) below 20%.
*A* True

*Q* Is it true that Armyworm Mortality (%) reported for `Cc1nc(C(=O)O)cc2c1[nH]c1ccccc12` is less than 20%?
*A* True

====

Listing: Relative inhibition rate (%) In vivo therapy of selected compounds
- Tested on: tobacco mosaic virus (TMV)
- assay_overview: Anti-TMV in vivo therapeutic effect
- Set-up: species or system tobacco mosaic virus (host Nicotiana tabacum L.cv.Xanthi NN)
- condition_description: treatment dose 500 μg/mL
Just the number in %, nothing appended.

Before answering, review these 5 worked examples.
| compound | target_or_test_system | value_unit | value_observed |
| --- | --- | --- | --- |
| C[C@@H]1N[C@H](C(=O)NCCO)Cc2c1[nH]c1ccccc21 | tobacco mosaic virus (TMV) | % | 40 |
| CCOC(=O)C1Cc2c([nH]c3ccccc23)C(C)=N1 (stereo not drawn) | tobacco mosaic virus (TMV) | % | 45.8 |
| COc1ccc(C=NNC(=O)[C@@H]2Cc3c([nH]c4ccccc34)[C@H](C)N2)cc1 | tobacco mosaic virus (TMV) | % | 66.4 |
| Cc1nccc2c1[nH]c1cc(OC(=O)N(C)C)ccc12 | tobacco mosaic virus (TMV) | % | 15.6 |
| C[C@@H]1N[C@H](C(=O)NN=Cc2ccc[nH]2)Cc2c1[nH]c1ccccc21 | tobacco mosaic virus (TMV) | % | 63.4 |

Reported Relative inhibition rate (%) In vivo therapy (tobacco mosaic virus (TMV)) for entry `COc1cccc(C=NNC(=O)[C@@H]2Cc3c([nH]c4ccccc34)[C@H](C)N2)c1` is 54

For `Cc1nccc2c1[nH]c1cc(OC(=O)C(C)(C)C)ccc12` on tobacco mosaic virus (TMV), measured Relative inhibition rate (%) In vivo therapy was 0

Case `C[C@@H]1N[C@H](C(=O)NNC(=O)C(C)(C)C)Cc2c1[nH]c1ccccc21` , tobacco mosaic virus (TMV), Relative inhibition rate (%) In vivo therapy recorded as 42.1

Assay tobacco mosaic virus (TMV), sample `C[C@@H]1N[C@H](C(=O)NNC(=O)c2ccccc2)Cc2c1[nH]c1ccccc21` , Relative inhibition rate (%) In vivo therapy read: 34.2

====

- System: tobacco mosaic virus (TMV)
- assay_overview: Anti-TMV in vivo inactivation
- Parameters: species or system tobacco mosaic virus (host Nicotiana tabacum L.cv.Xanthi NN)
- condition_description: treatment dose 100 μg/mL
Let's look at some compounds and their measured Relative inhibition rate (%) In vivo inactivation.
Provide only the numeric value, understood in %.

Examples from the recorded data:
| compound | value_unit | value_observed |
| --- | --- | --- |
| C[C@@H]1N[C@H](C(=O)NN=Cc2ccc(N(C)C)cc2)Cc2c1[nH]c1ccccc21 | % | 25 |
| CCCCCCCC=NNC(=O)[C@@H]1Cc2c([nH]c3ccccc23)[C@H](C)N1 | % | 32.8 |
| C[C@@H]1N[C@H](C(=O)NN=Cc2ccc(Cl)cc2Cl)Cc2c1[nH]c1ccccc21 | % | 28.5 |
| CC(=NNC(=O)[C@@H]1Cc2c([nH]c3ccccc23)[C@H](C)N1)C(C)(C)C | % | 21.3 |

Recorded result, `CCCCCC(=O)NNC(=O)[C@@H]1Cc2c([nH]c3ccccc23)[C@H](C)N1` , Relative inhibition rate (%) In vivo inactivation: 0

In plain terms, `C[C@@H]1N[C@H](C(=O)NN=Cc2ccc3c(c2)OCO3)Cc2c1[nH]c1ccccc21` has a documented Relative inhibition rate (%) In vivo inactivation of 33.6

# compound `CCOC(=O)[C@@H]1Cc2c([nH]c3ccccc23)[C@H](CC)N1` ; its Relative inhibition rate (%) In vivo inactivation = 12.6
